assay text: small-molecule microarray binders of probe aCHRDL2, primary screen, biochemical, biotinylated probe, 635/667 nm fluorescence (AID 1100)
condition notes: higher = more signal
quantity kind: composite z-score
Simply state the number, no unit and no words.

Here's what some known entries look like.
Problem: Give its composite z-score value. Item: CCOC(=O)C[C@H]1[C@H](OC(=O)Cc2ccc3c(c2)OCO3)[C@@H](NC(=O)CC(C)C)c2cc(OCCCO)ccc2N1C(=O)Cc1ccc(OC)cc1
Solution: -0.0563

Problem: Give its composite z-score value. Item: COC(=O)[C@H](Cc1ccccc1)N1CC(/C=C/C2CC2)=C[C@H]1[C@H](O)Cc1ccccc1
Solution: -0.165

Problem: Give its composite z-score value. Item: O=C1NC(=O)C2C1C=CC(C(O)c1cccc3ccccc13)N2Nc1ccc(Cl)cc1Cl (centres undefined)
Solution: 1.16

Problem: Give its composite z-score value. Item: COCCOC(=O)N1C(=O)[C@@]2(c3cc(C#CC4=CCCCC4)ccc31)[C@H](c1ccc(OCCO)cc1)N1[C@H](c3ccccc3)[C@H](c3ccccc3)OC(=O)[C@H]1[C@@H]2C(=O)N1CCN(c2ncccn2)CC1
Solution: 0.262

Problem: Give its composite z-score value. Item: O=C1c2ccccc2[C@](Cc2ccccc2I)(C(=O)NCC(F)(F)F)[C@H](c2ccc(CO)cc2)N1C1CCCCC1
Solution: 0.821

Please turn your attention to the following entry.
Problem: Give its composite z-score value. Item: CN(C)CCCCNC(=O)[C@@H]1C[C@@H]2C(=O)N[C@@H](Cc3ccccc3)C(=O)N2[C@@H]1c1cccc(OCCO)c1
Solution: 0.393

###

# Lookup of reported composite z-score keyed by entry
assay text: anti-His antibody binders, primary screen, artefact control for SMM control protein annotation, biochemical, small-molecule microarray, 635 nm fluorescence (AID 1128);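 also: score merges feature fluorescence with signal-to-noise for each printed compound spot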
condition notes: anti-His Alexa647 antibody binding, higher = more signal
Simply state the number, no unit and no words.

Here's what some known entries look like.
Problem: Give its composite z-score value. Item: COCCOC(=O)N1C(=O)[C@@]2(c3cc(C#CCNC(N)=O)ccc31)[C@H](C(=O)N1CCc3cc(OC)c(OC)cc3C1)[C@H]1C(=O)O[C@H](c3ccccc3)[C@H](c3ccccc3)N1[C@@H]2c1ccccc1OCCO
Solution: 1.16

Problem: Give its composite z-score value. Item: CCCCC(=C=CC[C@@H](O)c1ccccc1OCCO)C[C@@H](O)COCc1ccccc1
Solution: 0.0168

Problem: Give its composite z-score value. Item: O=C1N(Cc2ccccc2)c2ccccc2[C@@H]2OC(c3ccc(OCCCO)cc3)=N[C@]12Cc1ccccc1
Solution: 0.205

Problem: Give its composite z-score value. Item: COc1ccc([Si](C)(C)[C@@H]2[C@@H](CC(=O)N(CCO)Cc3ccccc3)O[C@]3(C(=O)N(Cc4cccc(N5C(=O)c6cccc7cccc5c67)c4)c4ccccc43)[C@H]2C)cc1
Solution: 0.63

Problem: Give its composite z-score value. Item: CN1C(=O)C2C=CC(C(O)c3cccc4ccccc34)N(N3CCCCC3)C2C1=O (configuration not stated)
Solution: 2.11

Problem: Give its composite z-score value. Item: O=C1O[C@H](c2ccccc2)[C@H](c2ccccc2)N2[C@H]1[C@@H](C(=O)Nc1nc3ccccc3s1)[C@]1(C(=O)Nc3ccc(C#CC4(O)CCCCCC4)cc31)[C@H]2c1ccccc1OCCO
Solution: 1.41

Please turn your attention to the following entry.
Problem: Give its composite z-score value. Item: COC(=O)CCCCCCC(=O)Nc1ccc(NC(=O)CCCC[P+](c2ccccc2)(c2ccccc2)c2ccccc2)cc1
Solution: 0.703

###

assay target: NADPH oxidase 5 (Homo sapiens) (UniProt Q96PH1)
Sequence (Q96PH1 whole entry, looked up): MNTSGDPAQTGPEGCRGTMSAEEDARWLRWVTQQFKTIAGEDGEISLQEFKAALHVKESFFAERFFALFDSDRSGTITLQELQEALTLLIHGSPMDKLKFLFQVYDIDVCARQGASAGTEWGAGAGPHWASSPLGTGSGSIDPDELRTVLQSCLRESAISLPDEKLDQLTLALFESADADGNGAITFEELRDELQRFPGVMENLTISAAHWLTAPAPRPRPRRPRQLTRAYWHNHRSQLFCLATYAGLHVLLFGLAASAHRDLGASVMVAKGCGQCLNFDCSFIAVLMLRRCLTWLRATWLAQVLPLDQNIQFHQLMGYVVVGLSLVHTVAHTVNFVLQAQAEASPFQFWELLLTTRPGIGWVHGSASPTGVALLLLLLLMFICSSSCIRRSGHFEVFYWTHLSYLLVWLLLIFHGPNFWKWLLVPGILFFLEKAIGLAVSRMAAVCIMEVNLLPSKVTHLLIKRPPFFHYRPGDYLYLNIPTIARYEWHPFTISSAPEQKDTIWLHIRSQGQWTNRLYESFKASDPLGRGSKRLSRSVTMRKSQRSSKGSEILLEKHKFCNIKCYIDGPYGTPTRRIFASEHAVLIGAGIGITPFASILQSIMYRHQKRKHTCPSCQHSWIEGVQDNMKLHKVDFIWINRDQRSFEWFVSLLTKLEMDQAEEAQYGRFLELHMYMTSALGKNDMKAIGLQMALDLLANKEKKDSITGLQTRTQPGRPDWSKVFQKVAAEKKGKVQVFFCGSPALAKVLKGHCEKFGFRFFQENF
assay text: NOX5-dependent H2O2 signal modulators, primary screen, NOX inhibitor project, cell-based, HEK293-NOX5, Amplex Red fluorescence (AID 1161)
condition notes: HEK293-NOX5, ionomycin, 45 min, higher = more signal
quantity kind: z-score

Problem: Give its z-score value. Item: COc1ccccc1CN1C(=O)c2ccccc2[C@](Cc2ccccc2I)(C(=O)NCC(F)(F)F)[C@@H]1c1ccc(CO)cc1
Solution: -1.05

Problem: Give its z-score value. Item: CC(C)C(=C=CC[C@H](O)c1cccc(OCCO)c1)C[C@H](O)c1cc(Cl)cc(Cl)c1O
Solution: -1.83

Problem: Give its z-score value. Item: CCOC(=O)C1=CC[C@@H](c2cccc(Cl)c2)N(S(=O)(=O)c2ccc(C)cc2)C1
Solution: -0.736

Problem: Give its z-score value. Item: C=C(C)[C@@H]1CC=C(C(O)C2C=CC3C(=O)N(c4ccccc4)C(=O)C3N2Nc2ccccc2F)CC1 (some centres not stated)
Solution: -2.14

Problem: Give its z-score value. Item: CCCC[C@@H](O)C1=C(COc2ccccc2)C[C@H]2C(=O)N(C)C(=O)[C@H]2[C@H]1CO
Solution: 0.187

Problem: Give its z-score value. Item: CCCCC(O)C1C=CC2C(=O)N(c3ccccc3)C(=O)C2N1Nc1ccc(C(C)C)cc1 (configuration not stated)
Solution: -1.92

Problem: Give its z-score value. Item: NC(=O)N1C(=O)C2C(C1=O)C1C=C(CCCO)C2C(c2cccs2)N1Cc1cccc(OC(F)(F)F)c1 (configuration not stated)
Solution: -1.12

Problem: Give its z-score value. Item: C=C(/C(=C/C[C@H](OC(=O)c1ccncc1)c1ccc(CO)o1)c1cc(C(=O)OC)ccc1OC)C(C)C
Solution: -0.6

Problem: Give its z-score value. Item: OCC1CC(c2ccccc2)=NO1 (configuration not stated)
Solution: 0.273

Problem: Give its z-score value. Item: COCCCNC(=O)[C@@]1(Sc2ccc(C)cc2)CC(=O)N(C2CCCCC2)[C@@H]1c1ccc(CO)cc1
Solution: -1.3

---
Problem: Give its z-score value. Item: N#Cc1ccc(C(O)C2C=CC3C(=O)N(c4ccccc4)C(=O)C3N2Nc2ccccc2)cc1 (configuration not stated)
Solution: -3.02

Problem: Give its z-score value. Item: COc1ccc(C#Cc2ccc3c(c2)[C@]2(C(=O)N3)[C@H](c3ccc(O)cc3)N3[C@H](c4ccccc4)[C@H](c4ccccc4)OC(=O)[C@H]3[C@@H]2C(=O)O)cc1
Solution: 0.00974

Problem: Give its z-score value. Item: CO[C@H]1O[C@H](CO)[C@@H](OC(=O)Nc2ccc3c(c2)OCO3)[C@H](OC(=O)c2cc3ccccc3[nH]2)[C@H]1OC(=O)c1cc2ccccc2[nH]1
Solution: -3.47

Problem: Give its z-score value. Item: CCOC(=O)c1ccc(NC(=O)O[C@H]2[C@H](OC(=O)Nc3ccc4c(c3)OCO4)[C@@H](OC(=O)Nc3ccc4c(c3)OCO4)[C@@H](OC)O[C@@H]2CO)cc1
Solution: -1.77

Problem: Give its z-score value. Item: COC(=O)c1c(CC[C@@H](CO)NC(=O)N[C@H](Cn2cc(C3(O)CCCCC3)nn2)C(C)C)oc(C(C)=O)c1C(=O)OC
Solution: 0.655

Problem: Give its z-score value. Item: O=C1N(Cc2ccccc2)c2ccccc2[C@@H]2OC(c3ccc(OCCCO)cc3)=N[C@]12Cc1ccccc1
Solution: -2.11

Problem: Give its z-score value. Item: CC(C)C[C@@H]1NC(=O)[C@@H]2C[C@H](C(=O)NCCCCCN)[C@H](c3ccc(O)cc3)N2C1=O
Solution: 0.553

###

assay text: basal MM1S mitochondrial membrane potential changes, profiling panel, cell-based, JC-1 fluorescence, 24 h, 100 nL compound (AID 1170); also: test concentration not given here
condition notes: higher = more signal
Use z-score to assign classes; range list: bottom range (below -0.9), center range (-0.9 to below -0.3), top range (-0.3 or more)

Problem: Textbook exercise: identify the category of the compound given here, C=CCC(OC(C)=O)[C@@H]1[C@@H](N(Cc2cccc3ccccc23)C(=O)Cc2ccc(OC)cc2)c2cc(OCCCO)ccc2N1C(=O)c1ccc2ccccc2n1 (stereo partly drawn) , according to its measured value.
Solution: top range

Problem: Textbook exercise: identify the category of the compound given here, O=c1n(-c2ccccc2)c(=O)n2n1CC(COc1ccccc1)=C([C@H](O)CCc1ccccc1)[C@@H]2CO , according to its measured value.
Solution: bottom range

Problem: Textbook exercise: identify the category of the compound given here, C=CCC(OC(C)=O)[C@@H]1[C@@H](N(Cc2cccc3ccccc23)C(=O)Cc2ccc(F)cc2)c2cc(OCCCO)ccc2N1C(=O)c1ccc2ccccc2n1 (stereo partly drawn) , according to its measured value.
Solution: center range

Problem: Textbook exercise: identify the category of the compound given here, COC(=O)[C@@]1(Cc2ccc(OC)cc2)[C@H]2c3cc(C(=O)N4CCCC4)n(Cc4cccc5ccccc45)c3C[C@H]2CN1C(=O)c1ccccc1 , according to its measured value.
Solution: bottom range

Problem: Textbook exercise: identify the category of the compound given here, COC(=O)c1c(CC[C@@H](CO)NC(=O)N2CCC[C@H]2Cn2cc(Cc3ccccc3)nn2)oc(C(C)=O)c1C(=O)OC , according to its measured value.
Solution: top range

---
Problem: Textbook exercise: identify the category of the compound given here, O=C1OCCC/C=C\[C@H]2OC34C=CCN(CCN5CCOCC5)C(=O)[C@H]3N(CCCCCCO)C(=O)[C@@H]4C12 (stereo partly drawn) , according to its measured value.
Solution: bottom range

Problem: Textbook exercise: identify the category of the compound given here, COC(=O)[C@@]1(Cc2ccc(OC)cc2)[C@H]2c3cc(C(=O)N4CCCC4)n(Cc4c(-c5ccccc5)noc4C)c3C[C@H]2CN1C(=O)c1ccccc1 , according to its measured value.
Solution: bottom range

Problem: Textbook exercise: identify the category of the compound given here, CCCNC(=O)[C@@H]1c2ccccc2C(=O)N(C(C)C)[C@H]1c1ccc(CO)cc1 , according to its measured value.
Solution: center range

Problem: Textbook exercise: identify the category of the compound given here, CC=CC(O)C1C=CC2C(=O)N(c3ccccc3)C(=O)C2N1Nc1ccccc1F (stereo not drawn) , according to its measured value.
Solution: top range

Problem: Textbook exercise: identify the category of the compound given here, O=C(NCC(F)(F)F)[C@@H]1c2ccccc2C(=O)N(Cc2cc(F)cc(C(F)(F)F)c2)[C@H]1c1ccc(CO)cc1 , according to its measured value.
Solution: center range

Problem: Textbook exercise: identify the category of the compound given here, COc1ccc(CCN2C(=O)[C@@]3(Cc4ccccc42)c2ccccc2C(=O)N(Cc2ccccc2OC)[C@H]3c2ccc(CO)cc2)cc1 , according to its measured value.
Solution: top range

Problem: Textbook exercise: identify the category of the compound given here, COC(=O)[C@@]1(Cc2ccccc2)[C@H]2c3cc(C(=O)N(C)C)n(CCc4ccc(O)c(OC)c4)c3C[C@H]2CN1C(=O)c1ccccc1 , according to its measured value.
Solution: top range

Where do these numbers come from? They come from PubChem BioAssay.
